experiment: Mouse pharmacokinetics, IV and oral administration; format: in vivo; conditions: male, C57BL/6, mouse, plasma, iv, 2.69 mg/kg, male C57BL/6 mice, IV 2.69 mg/kg, 4.0 h; read-out: Plasma Concentration, Individual
test readout: concentration at 4 h (µM)
State the answer as a number, implicitly in µM.

Query: Look up concentration at 4 h: Nc1nccc(-c2c(-c3ccc(F)cc3)ncn2C2CCC(F)(F)CC2)n1
Response: 3.74

###

experiment: Mouse pharmacokinetics, IV and oral administration; assay type: in vivo; conditions: male, C57BL/6, mouse, plasma, iv, 2.69 mg/kg, male C57BL/6 mice, IV 2.69 mg/kg, 0.5 h; read-out: Plasma Concentration, Mean
test readout: concentration at 0.5 h (µM)
State the answer as a number, implicitly in µM.

Query: Look up concentration at 0.5 h: Nc1nccc(-c2c(-c3ccc(F)cc3)ncn2C2CCC(F)(F)CC2)n1
Response: 4.14

###

assay: Mouse pharmacokinetics, IV and oral administration; type: in vivo; conditions: male, C57BL/6, mouse, plasma, iv, 2.69 mg/kg, male C57BL/6 mice, IV 2.69 mg/kg, 24 h; read-out: Plasma Concentration, Mean
test readout: concentration at 24 h (nM)
State the answer as a number, implicitly in nM.

Query: Look up concentration at 24 h: Nc1nccc(-c2c(-c3ccc(F)cc3)ncn2C2CCC(F)(F)CC2)n1
Response: 24.5

###

test: Mouse pharmacokinetics, IV and oral administration; assay type: in vivo; conditions: male, C57BL/6, mouse, plasma, po, 8.96 mg/kg, male C57BL/6 mice, oral 8.96 mg/kg, 24 h; read-out: Plasma Concentration, Mean
test readout: concentration at 24 h (nM)
State the answer as a number, implicitly in nM.

Query: Look up concentration at 24 h: Nc1nccc(-c2c(-c3ccc(F)cc3)ncn2C2CCC(F)(F)CC2)n1 [ZH3-138]
Response: 55.7

###

assay: Mouse pharmacokinetics, IV and oral administration; format: in vivo; conditions: male, C57BL/6, mouse, plasma, po, 8.96 mg/kg, male C57BL/6 mice, oral 8.96 mg/kg, 0.25 h; read-out: Plasma Concentration, Individual
test readout: concentration at 0.25 h (µM)
State the answer as a number, implicitly in µM.

Query: Look up concentration at 0.25 h: Nc1nccc(-c2c(-c3ccc(F)cc3)ncn2C2CCC(F)(F)CC2)n1
Response: 12.1

###

target: MINK/MINK1 (Homo sapiens); construct: purchased Reaction Biology Corp; experiment: Kinase inhibition assay (HotSpot), MINK/MINK1; assay type: biochemical; settings: 10 μM ATP, 10-dose IC50 mode; read-out: Compound IC50 (M) MINK/MINK1
Sequence (Q8N4C8 whole entry): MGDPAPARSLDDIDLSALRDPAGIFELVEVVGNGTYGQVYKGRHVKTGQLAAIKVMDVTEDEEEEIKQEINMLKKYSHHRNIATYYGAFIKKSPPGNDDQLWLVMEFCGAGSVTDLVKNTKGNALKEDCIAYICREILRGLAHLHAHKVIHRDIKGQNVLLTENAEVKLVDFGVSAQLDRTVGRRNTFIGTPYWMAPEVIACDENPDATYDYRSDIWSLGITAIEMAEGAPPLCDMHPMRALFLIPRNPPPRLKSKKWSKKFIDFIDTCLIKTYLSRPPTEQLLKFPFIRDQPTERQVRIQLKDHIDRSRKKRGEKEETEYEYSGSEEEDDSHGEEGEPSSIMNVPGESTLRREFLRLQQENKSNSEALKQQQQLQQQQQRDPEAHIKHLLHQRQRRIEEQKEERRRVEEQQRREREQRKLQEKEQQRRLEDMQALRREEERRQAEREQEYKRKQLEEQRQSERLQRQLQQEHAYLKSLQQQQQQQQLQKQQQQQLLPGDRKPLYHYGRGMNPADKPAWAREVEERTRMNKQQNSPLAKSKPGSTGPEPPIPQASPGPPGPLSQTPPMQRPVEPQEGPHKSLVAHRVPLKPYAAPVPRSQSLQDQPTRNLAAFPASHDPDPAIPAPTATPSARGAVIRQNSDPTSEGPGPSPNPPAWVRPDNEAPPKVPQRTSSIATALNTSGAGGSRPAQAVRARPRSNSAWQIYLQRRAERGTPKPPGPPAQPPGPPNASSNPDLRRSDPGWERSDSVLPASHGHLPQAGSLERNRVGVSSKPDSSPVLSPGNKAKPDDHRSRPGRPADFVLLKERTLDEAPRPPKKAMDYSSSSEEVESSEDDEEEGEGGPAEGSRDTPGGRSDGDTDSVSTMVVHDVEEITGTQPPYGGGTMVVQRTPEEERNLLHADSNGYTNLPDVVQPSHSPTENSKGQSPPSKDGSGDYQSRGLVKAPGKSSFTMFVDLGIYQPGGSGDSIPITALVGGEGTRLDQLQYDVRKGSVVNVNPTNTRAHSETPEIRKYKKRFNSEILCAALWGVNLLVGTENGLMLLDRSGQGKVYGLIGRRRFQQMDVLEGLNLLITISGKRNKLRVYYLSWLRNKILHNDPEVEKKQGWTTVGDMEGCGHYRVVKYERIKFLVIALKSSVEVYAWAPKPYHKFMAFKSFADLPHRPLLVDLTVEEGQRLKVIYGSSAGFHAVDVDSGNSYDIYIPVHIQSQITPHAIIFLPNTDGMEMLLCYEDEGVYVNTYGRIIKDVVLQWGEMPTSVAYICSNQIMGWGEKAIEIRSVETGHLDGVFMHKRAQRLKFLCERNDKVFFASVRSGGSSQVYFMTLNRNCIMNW
Consider the following compounds and their measured IC50 readings.
The reply must contain the numeric value and, after it, the unit.

Please review the following examples before continuing.
O[C@H]1C[C@@H](Nc2nccc(-c3c(-c4ccc(F)cc4)ncn3C3CCCCC3)n2)C1: 7.53e-09 M
O=S1(=O)CCC(Nc2nccc(-c3c(-c4ccc(F)cc4)ncn3C3CCCCC3)n2)CC1: 3.77e-08 M
CCn1cnc(-c2ccc(F)cc2)c1-c1ccnc(NC2CCC2)n1: 1.83e-08 M
Fc1ccc(-c2ncn(C3CCCCC3)c2-c2ccnc(NCc3cccc(F)c3)n2)cc1: 3.33e-08 M

Query: Look up IC50: Fc1ccc(CNc2nccc(-c3c(-c4ccc(F)cc4)ncn3C3CCCCC3)n2)cc1
Response: 1.95e-08 M

Query: Look up IC50: Nc1nccc(-c2c(-c3ccc(F)cc3)ncn2CC2CCC(F)(F)CC2)n1
Response: 8.9e-07 M

Query: Look up IC50: CCn1cnc(-c2ccc(F)cc2)c1-c1ccnc(NCCO)n1
Response: 1.99e-07 M

Query: Look up IC50: Fc1ccc(-c2ncn(C3CCCCC3)c2-c2ccnc(NC3CCCCC3)n2)cc1
Response: 2.36e-07 M

Query: Look up IC50: Fc1ccc(-c2ncn(C3CCCCC3)c2-c2ccnc(NC3CCCC3)n2)cc1
Response: 6.69e-08 M

Query: Look up IC50: Fc1ccc(-c2ncn(C3CCCCC3)c2-c2ccnc(NC3CC3)n2)cc1
Response: 1.06e-08 M

Query: Look up IC50: CCNc1nccc(-c2c(-c3ccc(F)cc3)ncn2C2CCCCC2)n1
Response: 2.26e-08 M

Query: Look up IC50: CC(C)(C)Cn1cnc(-c2ccc(F)cc2)c1-c1ccnc(N)n1
Response: 8.09e-07 M

The values you see were collected from patent US20220281846A1.
